Test system: 435261-313-R-J1-PDC tumor spheroid viability;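 further: spheroids exposed to compounds for 7 days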
ASSAY REMARKS: Anticancer human tumor 435261-313-R-J1-PDC patient-derived colon adenocarcinoma cell line growth inhibition [PI3K]
CONDITION CONTEXT: curve of first compound; second compound 0.00316 µM; spheroids with HUVEC and MSC
MEASUREMENT LABEL: IC50 (nM)
Your answer should be a plain number; it is taken to be in nM.

MOLECULE: CCN1CCN(Cc2ccc(Nc3ncc(F)c(-c4cc(F)c5nc(C)n(C(C)C)c5c4)n3)nc2)CC1 + CC(Nc1ccc2c(c1)OCCn1cc(N3C(=O)OCC3C(F)F)nc1-2)C(N)=O
IC50 (nM): 124

# input Any idea what IC50 came out for C#Cc1c(F)ccc2cc(O)cc(-c3ncc4c(N5CC6CCC(C5)N6)nc(OCC56CCCN5CC(F)C6)nc4c3F)c12 (stereo unspecified) + CC(Nc1ccc2c(c1)OCCn1cc(N3C(=O)OCC3C(F)F)nc1-2)C(N)=O on 435261-313-R-J1-PDC tumor spheroid viability?
# output 3730

# input Give recorded IC50 with 435261-313-R-J1-PDC tumor spheroid viability for the following molecule: CC1(C)CCC(Nc2ncc(C(F)(F)F)c(-c3c[nH]c4c(P(C)(C)=O)c(C#N)ccc34)n2)CN1 (stereo unspecified) + COc1c(OCCCN2CCOCC2)ccc2c3n(c(=NC(=O)c4cnc(N)nc4)nc12)CCN3
# output 3170

# input Request: IC50, test system 435261-313-R-J1-PDC tumor spheroid viability, entry Cn1nccc1Nc1nccc(-c2ccn(C(CO)c3ccc(Cl)c(F)c3)c(=O)c2)n1 (stereo unspecified) + CC(Nc1ccc2c(c1)OCCn1cc(N3C(=O)OCC3C(F)F)nc1-2)C(N)=O;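 further: spheroids exposed to compounds for 7 days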
# output 421

# input Find IC50 (435261-313-R-J1-PDC tumor spheroid viability) for the entry CC(C)n1nc(-c2ccc3oc(N)nc3c2)c2c(N)ncnc21 + COc1c(OCCCN2CCOCC2)ccc2c3n(c(=NC(=O)c4cnc(N)nc4)nc12)CCN3
# output 11.8

# input Requested read-out IC50, target or system 435261-313-R-J1-PDC tumor spheroid viability, entry CNC(=O)c1ccc(N2C(=S)N(c3ccc(C#N)c(C(F)(F)F)c3)C(=O)C2(C)C)cc1F + COc1c(OCCCN2CCOCC2)ccc2c3n(c(=NC(=O)c4cnc(N)nc4)nc12)CCN3;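 further: spheroids exposed to compounds for 7 days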
# output 8990

# input Observed IC50 on 435261-313-R-J1-PDC tumor spheroid viability for CC(C)NCC(C(=O)N1CCN(c2ncnc3c2C(C)CC3O)CC1)c1ccc(Cl)cc1 (stereo unspecified) + CC(Nc1ccc2c(c1)OCCn1cc(N3C(=O)OCC3C(F)F)nc1-2)C(N)=O , please.
# output 5070

# input 435261-313-R-J1-PDC tumor spheroid viability / IC50 / Cn1nccc1Nc1nccc(-c2ccn(C(CO)c3ccc(Cl)c(F)c3)c(=O)c2)n1 (stereo unspecified) + COc1c(OCCCN2CCOCC2)ccc2c3n(c(=NC(=O)c4cnc(N)nc4)nc12)CCN3 : value?
# output 238

# input Record CC(C)NCC(C(=O)N1CCN(c2ncnc3c2C(C)CC3O)CC1)c1ccc(Cl)cc1 (stereo unspecified) + COc1c(OCCCN2CCOCC2)ccc2c3n(c(=NC(=O)c4cnc(N)nc4)nc12)CCN3 : what is its IC50 with 435261-313-R-J1-PDC tumor spheroid viability?
# output 765

# input Give recorded IC50 with 435261-313-R-J1-PDC tumor spheroid viability for the following molecule: CC1(C)CCC(CN2CCN(c3ccc(C(=O)NS(=O)(=O)c4ccc(NCC5CCOCC5)c([N+](=O)[O-])c4)c(Oc4cnc5[nH]ccc5c4)c3)CC2)=C(c2ccc(Cl)cc2)C1 + CC(Nc1ccc2c(c1)OCCn1cc(N3C(=O)OCC3C(F)F)nc1-2)C(N)=O
# output 5550

# input So what IC50 did CC1(C)CCC(CN2CCN(c3ccc(C(=O)NS(=O)(=O)c4ccc(NCC5CCOCC5)c([N+](=O)[O-])c4)c(Oc4cnc5[nH]ccc5c4)c3)CC2)=C(c2ccc(Cl)cc2)C1 + COc1c(OCCCN2CCOCC2)ccc2c3n(c(=NC(=O)c4cnc(N)nc4)nc12)CCN3 get with 435261-313-R-J1-PDC tumor spheroid viability?
# output 4970

# input Report IC50 for CCN1CCN(Cc2ccc(Nc3ncc(F)c(-c4cc(F)c5nc(C)n(C(C)C)c5c4)n3)nc2)CC1 + COc1c(OCCCN2CCOCC2)ccc2c3n(c(=NC(=O)c4cnc(N)nc4)nc12)CCN3 tested on 435261-313-R-J1-PDC tumor spheroid viability.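 Further: spheroids exposed to compounds for 7 days.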
# output 52.9

# input Query for 435261-313-R-J1-PDC tumor spheroid viability: what IC50 does the record show for Cn1ncc(Cl)c1-c1cc(C(=O)NC(CN)Cc2cccc(F)c2)sc1Cl (stereo unspecified) + CC(Nc1ccc2c(c1)OCCn1cc(N3C(=O)OCC3C(F)F)nc1-2)C(N)=O ?
# output 567

# input Requested read-out IC50, target or system 435261-313-R-J1-PDC tumor spheroid viability, entry Cn1ncnc1[C@H]1c2n[nH]c(=O)c3cc(F)cc(c23)N[C@@H]1c1ccc(F)cc1 + COc1c(OCCCN2CCOCC2)ccc2c3n(c(=NC(=O)c4cnc(N)nc4)nc12)CCN3;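 further: spheroids exposed to compounds for 7 days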
# output 47.7
